log10 Kd for Galectin-3 (Homo sapiens, UniProt P17931) - collated from the literature.
The base-10 logarithm of Kd, taken with Kd in nM, is what appears here.

Worked cases, answers included:
INSERT INTO measurements (molecule, system_tested, property_measured, measured) VALUES
  ('O=C(NC1CCC[C@@H](S[C@@H]2OC(CO)[C@H](O)[C@H](NC(=O)c3ccc(Cl)cc3)C2O)C1O)c1ccc(Cl)cc1 (stereo partly drawn)', 'Galectin-3 (Homo sapiens, UniProt P17931)', 'log10 Kd', 3.15),
  ('OC[C@H]1O[C@H](Sc2cc(Cl)cc(Cl)c2)[C@H](O)[C@@H](n2cc(-c3cc(F)c(F)c(F)c3)nn2)[C@H]1O', 'Galectin-3 (Homo sapiens, UniProt P17931)', 'log10 Kd', 1.90),
  ('O=C(N[C@H]1[C@@H](O)[C@@H](CO)O[C@@H](S[C@@H]2O[C@H](CO)[C@H](O)[C@H](NC(=O)c3ccccc3)[C@H]2O)[C@@H]1O)c1ccccc1', 'Galectin-3 (Homo sapiens, UniProt P17931)', 'log10 Kd', 3.16),
  ('OC[C@H]1O[C@H](Oc2ccc(Cl)cc2)[C@H](O)[C@@H](n2cc(-c3cc(F)c(F)c(F)c3)nn2)[C@H]1O', 'Galectin-3 (Homo sapiens, UniProt P17931)', 'log10 Kd', 2.76),
  ('OCC1O[C@H](Sc2cccc3ccccc23)C(O)[C@@H](n2cc(-c3cc(F)c(F)c(F)c3)nn2)[C@H]1O (stereo partly drawn)', 'Galectin-3 (Homo sapiens, UniProt P17931)', 'log10 Kd', 2.98);

Problem: Fill blank: measured log10 Kd of the molecule O=c1oc2cc(F)c(F)cc2cc1COC1C(O)[C@H](S[C@@H]2OC(CO)[C@H](O)C(OCc3cc4cc(F)c(F)cc4oc3=O)C2O)OC(CO)[C@@H]1O (stereo partly drawn) is ____.
Result: 2.04

###

Kd for Galectin-3 (Homo sapiens) - collated from the literature.
Field: numeric (nM). Do not append units.

Worked cases, answers included:
INSERT INTO measurements (compound, unit_text, measured) VALUES
  ('O=c1oc2ccc(F)cc2cc1CO[C@H]1[C@@H](O)[C@@H](CO)O[C@@H](S[C@@H]2O[C@H](CO)[C@H](O)[C@H](OCc3cc4cc(F)ccc4oc3=O)[C@H]2O)[C@@H]1O', 'nM', 97),
  ('OC[C@H]1O[C@H](Sc2ccc(F)cc2)[C@H](O)[C@@H](n2cc(-c3cc(F)c(F)c(F)c3)nn2)[C@H]1O', 'nM', 270),
  ('OCC1O[C@H](Sc2ccc3ccccc3c2)C(O)[C@@H](n2cc(-c3cc(F)c(F)c(F)c3)nn2)[C@H]1O (some centres unmarked)', 'nM', 180),
  ('OC[C@H]1O[C@H](Oc2cccc(Cl)c2)[C@H](O)[C@@H](n2cc(-c3cc(F)c(F)c(F)c3)nn2)[C@H]1O', 'nM', 250),
  ('O=C(N[C@H]1[C@@H](O)[C@@H](CO)O[C@@H](S[C@@H]2O[C@H](CO)[C@H](O)[C@H](NC(=O)c3ccc([N+](=O)[O-])cc3)[C@H]2O)[C@@H]1O)c1ccc([N+](=O)[O-])cc1', 'nM', 50),
  ('OCC1O[C@H](SCCc2ccccc2)C(O)[C@@H](n2cc(-c3cc(F)c(F)c(F)c3)nn2)[C@H]1O (some centres unmarked)', 'nM', 480);

Problem: State its Kd on Galectin-3 (Homo sapiens): O=c1oc2ccc(Cl)cc2cc1COC1C(O)[C@H](S[C@@H]2OC(CO)[C@H](O)C(OCc3cc4cc(Cl)ccc4oc3=O)C2O)OC(CO)[C@@H]1O (some centres unmarked)
Result: 6000

Problem: State its Kd on Galectin-3 (Homo sapiens): `OC[C@H]1O[C@H](Sc2ccncc2)[C@H](O)[C@@H](n2cc(-c3cc(F)c(F)c(F)c3)nn2)[C@H]1O`
Result: 190

###

pKd: −log10 of the molar value.
pKd for Galectin-3 (Homo sapiens, UniProt P17931) - collated from the literature.
Assign condition met to entries whose pKd meets or exceeds 7; assign condition not met to the rest.

INSERT INTO assay_data (molecule, label) VALUES
  ('O=c1oc2ccccc2cc1CO[C@H]1[C@@H](O)[C@@H](CO)O[C@@H](S[C@@H]2O[C@H](CO)[C@H](O)[C@H](OCc3cc4ccccc4oc3=O)[C@H]2O)[C@@H]1O', 'condition not met'),
  ('[O-][S+](c1ccc(Cl)c(Cl)c1)[C@H]1O[C@H](CO)[C@H](O)[C@H](n2cc(-c3c(F)c(F)c(F)c(F)c3F)nn2)[C@H]1O (some centres unmarked)', 'condition met'),
  ('O=c1oc2cc(Cl)ccc2cc1CO[C@H]1[C@@H](O)[C@@H](CO)O[C@@H](S[C@@H]2O[C@H](CO)[C@H](O)[C@H](OCc3cc4ccc(Cl)cc4oc3=O)[C@H]2O)[C@@H]1O', 'condition not met'),
  ('Cc1ccc2cc(COC3C(O)[C@H](S[C@@H]4OC(CO)[C@H](O)C(OCc5cc6ccc(C)cc6oc5=O)C4O)OC(CO)[C@@H]3O)c(=O)oc2c1 (some centres unmarked)', 'condition not met'),
  ('CCOc1cccc(S[C@H]2O[C@H](CO)[C@H](O)[C@H](n3cc(-c4cc(F)c(F)c(F)c4)nn3)[C@H]2O)c1', 'condition not met'),
  ('O=c1oc2ccc(F)c(F)c2cc1CO[C@H]1[C@@H](O)[C@@H](CO)O[C@@H](S[C@@H]2O[C@H](CO)[C@H](O)[C@H](OCc3cc4c(F)c(F)ccc4oc3=O)[C@H]2O)[C@@H]1O', 'condition met'),
  ('[O-][S+](c1cncc(Cl)c1)[C@H]1OC(CO)[C@H](O)[C@H](n2cc(-c3cc(F)c(F)c(F)c3)nn2)C1O (single isomer, unassigned; isomer 2)', 'condition met'),
  ('CN(C)c1cccc2cc(S(=O)(=O)[C@H]3OC(CO)[C@H](O)[C@H](n4cc(-c5cc(F)c(F)c(F)c5)nn4)C3O)ccc12 (some centres unmarked)', 'condition not met');

Problem: Is the recorded value of pKd equal to or greater than 7 for this molecule? O=c1oc2ccc(OC(F)(F)F)cc2cc1COC1C(O)[C@H](S[C@@H]2OC(CO)[C@H](O)C(OCc3cc4cc(OC(F)(F)F)ccc4oc3=O)C2O)OC(CO)[C@@H]1O (some centres unmarked)
Result: condition not met

Problem: Is the recorded value of pKd equal to or greater than 7 for this molecule? COc1cc(OC)cc(C(=O)NC2C(O)[C@H](S[C@@H]3OC(CO)[C@H](O)C(NC(=O)c4cc(OC)cc(OC)c4)C3O)OC(CO)[C@@H]2O)c1 (some centres unmarked)
Result: condition met

Problem: Is the recorded value of pKd equal to or greater than 7 for this molecule? `O=S(=O)(c1ccc(Cl)c(Cl)c1)[C@H]1O[C@H](CO)[C@H](O)[C@H](n2cc(-c3c(F)c(F)c(F)c(F)c3F)nn2)[C@H]1O`
Result: condition met

Problem: Is the recorded value of pKd equal to or greater than 7 for this molecule? `OC[C@H]1O[C@H](Sc2ccc(Cl)cc2)[C@H](O)[C@@H](n2cc(-c3cc(F)c(F)c(F)c3)nn2)[C@H]1O`
Result: condition not met

Problem: Is the recorded value of pKd equal to or greater than 7 for this molecule? CCCNC(=O)c1cn(C2CCC[C@@H](S[C@@H]3OC(CO)[C@H](O)[C@H](n4cc(C(=O)NCCC)nn4)C3O)C2O)nn1 (some centres unmarked)
Result: condition not met

Problem: Is the recorded value of pKd equal to or greater than 7 for this molecule? `OC[C@H]1O[C@@H](S[C@@H]2CCC[C@H](n3cc(-c4ccccc4F)nn3)[C@H]2O)[C@H](O)[C@@H](n2cc(-c3ccccc3F)nn2)[C@H]1O`
Result: condition not met

Problem: Is the recorded value of pKd equal to or greater than 7 for this molecule? `CCCNC(=O)c1cn([C@H]2[C@@H](O)[C@@H](CO)O[C@@H](O[C@@H]3CCC[C@H](n4cc(C(=O)NCCC)nn4)[C@H]3O)[C@@H]2O)nn1`
Result: condition not met

Problem: Is the recorded value of pKd equal to or greater than 7 for this molecule? [O-][S+](c1ccc(Cl)cc1)[C@H]1O[C@H](CO)[C@H](O)[C@H](n2cc(-c3cc(F)c(F)c(F)c3)nn2)[C@H]1O (some centres unmarked)
Result: condition not met

Problem: Is the recorded value of pKd equal to or greater than 7 for this molecule? `OC[C@H]1O[C@H](SC2CCCCC2)[C@H](O)[C@@H](n2cc(-c3cc(F)c(F)c(F)c3)nn2)[C@H]1O`
Result: condition not met

Problem: Is the recorded value of pKd equal to or greater than 7 for this molecule? OCC1O[C@H](SC2CCCC(F)(F)C2)C(O)[C@@H](n2cc(-c3cc(F)c(F)c(F)c3)nn2)[C@H]1O (some centres unmarked)
Result: condition not met

Problem: Is the recorded value of pKd equal to or greater than 7 for this molecule? COc1ccc(S[C@H]2OC(CO)[C@H](O)[C@H](n3cc(-c4cc(F)c(F)c(F)c4)nn3)C2O)cc1 (some centres unmarked)
Result: condition not met

Problem: Is the recorded value of pKd equal to or greater than 7 for this molecule? `O=S(=O)(c1cncc(Br)c1)[C@H]1O[C@H](CO)[C@H](O)[C@H](n2cc(-c3cc(F)c(F)c(F)c3)nn2)[C@H]1O`
Result: condition met

Problem: Is the recorded value of pKd equal to or greater than 7 for this molecule? OCC1O[C@@H](SC2O[C@H](CO)C(O)C(n3cc(C4CCNCC4)nn3)[C@H]2O)C(O)[C@@H](n2cc(-c3cc(F)c(F)c(F)c3)nn2)[C@H]1O (some centres unmarked)
Result: condition met
